Biological target: human Histamine H3 receptor (hH3R) (Homo sapiens)
Sequence (Q9Y5N1 whole entry): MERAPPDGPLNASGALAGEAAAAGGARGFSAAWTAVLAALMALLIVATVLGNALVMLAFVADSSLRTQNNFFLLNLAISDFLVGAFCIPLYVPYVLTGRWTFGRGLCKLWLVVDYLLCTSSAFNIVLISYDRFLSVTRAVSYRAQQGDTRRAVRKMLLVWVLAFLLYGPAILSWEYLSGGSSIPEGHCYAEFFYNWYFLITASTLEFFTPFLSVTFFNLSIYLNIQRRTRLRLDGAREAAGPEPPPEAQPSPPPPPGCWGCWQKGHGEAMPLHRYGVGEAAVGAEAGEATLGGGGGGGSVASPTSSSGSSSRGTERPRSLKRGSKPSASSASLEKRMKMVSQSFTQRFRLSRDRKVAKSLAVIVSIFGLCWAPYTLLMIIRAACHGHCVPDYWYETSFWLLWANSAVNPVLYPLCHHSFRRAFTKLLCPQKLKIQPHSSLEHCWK
pIC50: −log10 of the molar value.
Result Type: pIC50

>>> recorded_number("O=C(C1CC12CCN(CCc1ccccc1)CC2)N1CCN(C2CCCCC2)CC1 (single isomer, unassigned)")
6.90
>>> recorded_number("O=C(C1CC12CCN(C1CCOCC1)CC2)N1CCN(C2CCCCCC2)CC1 (stereo not drawn)")
7.13
>>> recorded_number("CC(C)N1CCN(C(=O)C2CC23CCN(C2CCOCC2)CC3)CC1 (stereo not drawn) [Example 10]")
8.49
>>> recorded_number("O=C(C1CC12CCN(C1CCCCC1)CC2)N1CCN(C2CCC2)CC1 (single isomer, unassigned) [Example 27]")
7.36
>>> recorded_number("O=C(C1CC12CCN(C1CCCCC1)CC2)N1CCN(C2CCC2)CC1 (single isomer, unassigned) [Example 26]")
8.18
>>> recorded_number("O=C(C1CC12CCN(C1CCOCC1)CC2)N1CCN(C2CC2)CC1 (stereo not drawn)")
7.72
>>> recorded_number("O=C(C1CC12CCN(C1CCOCC1)CC2)N1CCN(C2CCC2)CC1 (stereo not drawn)")
8.44
>>> recorded_number("O=C(C1CC12CCN(C1CCCOC1)CC2)N1CCN(C2CCC2)CC1 (stereo not drawn)")
7.77
>>> recorded_number("O=C(C1CC12CCN(CCN1CCOCC1)CC2)N1CCN(C2CCC2)CC1 (stereo not drawn)")
7.87
>>> recorded_number("O=C(C1CC12CCN(C1CCOC1)CC2)N1CCN(C2CCC2)CC1 (stereo not drawn)")
8.26
>>> recorded_number("O=C(C1CC12CCN(C1CCCCC1)CC2)N1CCN(C2CCCCC2)CC1 (stereo not drawn)")
8.00
>>> recorded_number("CC(C)N1CCN(C(=O)C2CC23CCN(C2CCOCC2)CC3)CC1 (single isomer, unassigned) [Example 29]")
7.06

* * *

Target: human histamine H3 receptors (full-length H3, isoform 445) (Homo sapiens, UniProt Q9Y5N1);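 note: scintillation counts read after the 1.5 hr incubation at room temperature with shaking, Imetit serving as reference control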
Sequence (Q9Y5N1 whole entry, canonical isoform): as the sequence (Q9Y5N1 whole entry) above
Details: hH3 binding IC50 (nM), inhibition of 1.4 nM [3H]-N-α-methylhistamine binding to CHO-K1 membranes expressing human H3, SPA, 1.5 hr
Result Type: log10(IC50) (log10 of the value in nM)

>>> recorded_number("CC(C)N1CCN(C(=O)C2CC23CCN(C2CCOCC2)CC3)CC1 (single isomer, unassigned) [Example 28]")
0.42
>>> recorded_number("O=C(C1CC12CCN(C1CCCSC1)CC2)N1CCN(C2CCC2)CC1 (stereo not drawn) [Example 30]")
1.00
>>> recorded_number("CS(=O)(=O)c1ccc(N2CCC3(CC2)CC3C(=O)N2CCN(C3CCC3)CC2)cc1 (stereo not drawn) [Example 38]")
2.53
>>> recorded_number("COCCN1CCC2(CC1)CC2C(=O)N1CCN(C2CCCCC2)CC1 (stereo not drawn) [Example 43]")
2.79
>>> recorded_number("CC(C)N1CCC2(CC1)CC2C(=O)N1CCN(C2CCCCC2)CC1 (stereo not drawn) [Example 21]")
2.15
>>> recorded_number("O=C(C1CC12CCN(CCc1ccccc1)CC2)N1CCN(C2CCCCC2)CC1 (stereo not drawn) [Example 16]")
1.81
>>> recorded_number("CN1CCN(C(=O)C2CC23CCN(C/C=C/c2ccccc2)CC3)CC1 (stereo not drawn) [Example 4]")
2.90
>>> recorded_number("O=C(C1CC12CCN(C1CCOCC1)CC2)N1CCN(c2ccncc2)CC1 (stereo not drawn) [Example 14]")
1.42
>>> recorded_number("O=C(C1CC12CCN(C1CCOCC1)CC2)N1CCN(c2ccccn2)CC1 (stereo not drawn) [Example 13]")
2.76
>>> recorded_number("O=C(C1CC12CCN(C1CCCCC1)CC2)N1CCN(C2CCC2)CC1 (single isomer, unassigned) [Example 27]")
0.89
>>> recorded_number("O=C(C1CC12CCN(C1CCCCC1)CC2)N1CCN(C2CCCCC2)CC1 (stereo not drawn) [Example 19]")
1.75
>>> recorded_number("O=C(C1CC12CCN(c1cccc(Cl)n1)CC2)N1CCN(C2CCC2)CC1 (stereo not drawn) [Example 42]")
2.77
>>> recorded_number("O=C(C1CC12CCN(c1ccc(C(F)(F)F)cn1)CC2)N1CCN(C2CCCCC2)CC1 (stereo not drawn) [Example 46]")
4.00
>>> recorded_number("O=C(C1CC12CCN(C1CCOCC1)CC2)N1CCN(C2CCCCC2)CC1 (stereo not drawn) [Example 1]")
1.53
>>> recorded_number("O=C(C1CC12CCN(c1ccccn1)CC2)N1CCN(C2CCC2)CC1 (stereo not drawn) [Example 44]")
2.87
>>> recorded_number("COc1ccc(N2CCN(C(=O)C3CC34CCN(C3CCOCC3)CC4)CC2)cc1 (stereo not drawn) [Example 15]")
2.51
>>> recorded_number("O=C(C1CC12CCN(C1CCOCC1)CC2)N1CCN(C2CCOCC2)CC1 (stereo not drawn) [Example 24]")
2.53
>>> recorded_number("O=C(C1CC12CCN(C1CCOCC1)CC2)N1CCN(C2CC2)CC1 (stereo not drawn) [Example 9]")
1.53
